target: human fibroblast activation protein (FAP) on WI-38 fibroblasts (human) (UniProt Q12884); test: competitive FACS, WI-38 cells, Cy5-labeled peptide as competitor
Numbered stars: 1 amine (or outer) side, 2 acyl side, 3 side chain; on linkers, the order of the positions; unused ones are H or OH. Bridge positions count the residues as written; N and C are the ends. Square brackets hold non-standard residues; d marks the D form. Primed or numbered codes have the meaning given here. * marks the point of attachment. tMeBn(DOTA-PP) = 1,3,5-trimethylbenzylidene, two thioethers to Cys, third CH2 bound to one N of piperazine whose other N bears DOTA, O=C(O)CN1CCN(CC(=O)O)CCN(CC(=O)N2CCN(Cc3cc(C[*:1])cc(C[*:2])c3)CC2)CCN(CC(=O)O)CC1; Ttds(6) = 1,13-Diamino-4,7,10-trioxatridecan-succinamic acid, O=C(CCC(=O)[*:2])NCCCOCCOCCOCCCN[*:1]; 3MeBn = 3-Methylbenzylidene (m-xylylene thioether bridge from α,α′-dibromo-m-xylene); N4Ac = 6-Carboxy-1,4,8,11-tetraazaundecane, an N4-chelator, NCCNCC(CNCCN)C(=O)*; APAc = 2-(4-(Amino)piperidin-1-yl)acetic acid, O=C(CN1CCC(N[*:1])CC1)[*:2]; 3MeBn(3) = 3-methylbenzylidene (m-xylylene), from α,α′-dibromo-m-xylene; Nle = CCCC[C@H](N)C(=O)O; Hexanoyl = CCCCCC(=O)*
Reported pIC50 Category (FACS) values for a set of binders

BINDER: Hexanoyl-CPTPFQCD-NH2 (linker 1-7 via tMeBn(DOTA-PP); SMILES CCCCCC(=O)N[C@H]1CSCc2cc(cc(CN3CCN(C(=O)CN4CCN(CC(=O)O)CCN(CC(=O)O)CCN(CC(=O)O)CC4)CC3)c2)CSC[C@@H](C(=O)N[C@@H](CC(=O)O)C(N)=O)NC(=O)[C@H](CCC(N)=O)NC(=O)[C@H](Cc2ccccc2)NC(=O)[C@@H]2CCCN2C(=O)[C@H]([C@@H](C)O)NC(=O)[C@@H]2CCCN2C1=O) [Hex-[Cys(tMeBn(DOTA-PP))-Pro-Thr-Pro-Phe-Gln-Cys]-Asp-NH2]
pIC50 Category (FACS): < 6 pIC50
--
BINDER: N4Ac-[Ttds(6)]E[Nle]CPPTEFC-OH (linker 4-10 via 3MeBn; not fully specified (residue 2); printed as N4Ac-Ttds-Glu(AGLU′)-Nle-[Cys-(3MeBn)-Pro-Pro-Thr-Glu-Phe-Cys]-OH) [N4Ac-Ttds-Glu(AGLU′)-Nle-[Cys-(3MeBn)-Pro-Pro-Thr-Glu-Phe-Cys]-OH]
pIC50 Category (FACS): < 6 pIC50
--
BINDER: N4Ac-[APAc][Nle]CPPTEFC-OH (linker 3-9 via 3MeBn(3)) [N4Ac-APAc-Nle-[Cys-(3MeBn)-Pro-Pro-Thr-Glu-Phe-Cys]-OH]
pIC50 Category (FACS): < 6 pIC50
